System: P12-Ichikawa
Assay: cell viability relative to DMSO control; higher = less cytotoxic
Details: RPMI 5 mM glucose + 10% FBS; 48 h; 46.1 µM
# cell viability annotations
Supply the numeric figure in %, leaving out any unit text.

The cases that follow already have their cell viability on record.
Can you share its cell viability? I mean this molecule: CC1(C)O[C@@H]2C[C@H]3[C@@H]4C[C@H](F)C5=CC(=O)C=C[C@]5(C)[C@@]4(F)[C@@H](O)C[C@]3(C)[C@]2(C(=O)CO)O1 43.5

Same question for C[N]1C=C(C=N1)C2=C3\C=N/NC(=O)C4=C3C(=CC(=C4)NC(=O)[C@H](N)C5CCCCC5)[NH]2 please. 7.78

Further, for O=C(c1ccc(F)cc1)N1CCC[C@H](c2nc(-c3ccc(F)cc3)no2)C1 ? 115

Now examine the next entry.
Item under review: CN[C@@H](C)[C@H]1[C@H](O)C[C@@]2(C)[C@@H]3CC[C@H]4C(C)(C)[C@@H](NC)CC[C@@]45C[C@@]35CC[C@]12C . Reported cell viability? 91.9

* * *

Tested on: P12-Ichikawa
Assay: cell viability relative to DMSO control; higher = less cytotoxic
Details: RPMI 5 mM glucose + 10% FBS; 48 h; 0.0211 µM
measure-name: cell viability (%)
Supply the numeric figure in %, leaving out any unit text.

So what does the record say about cell viability for O=C(Nc1cccc(C(F)(F)F)c1)Nc1cc([S+](=O)([O-])NC2CC2)ccc1-c1ccsc1 ? 112

Follow-up entry: CCOC(=O)[C@@H](N)Cc1ccc(-c2cc(O[C@H](c3ccc(Cl)cc3-n3ccc(C)n3)C(F)(F)F)nc(N)n2)cc1.O=C(O)CNC(=O)c1ccccc1 122

CC(C)(C#N)c1cc(Cn2cncn2)cc(C(C)(C)C#N)c1 ? 129

Next compound up: NNCCc1ccccc1 117

Repeat for the following compound: CC(C)c1noc(N2CCC(COc3ccc(-c4ccc([S+](C)(=O)[O-])cc4)nc3)CC2)n1 112

New cases:
For the compound shown here, CNc1nc(Nc2ccc(C(=O)N3CCOCC3)cc2OC)ncc1Cl , give the reported cell viability. 119

And then Cc1onc(-c2ccccc2Cl)c1C(=O)N[C@@H]1C(=O)N2[C@@H]1SC(C)(C)[C@@H]2C(=O)[O-] , what is it? 111

Lookup C[S+](=O)([O-])Nc1ccc([N+](=O)[O-])cc1Oc1ccccc1 119

Request: COCC1(CO)C(=O)C2CCN1CC2 (centres undefined) 110

* * *

# cell viability annotations
System: NOMO1
Assay: cell viability relative to DMSO control; higher = less cytotoxic
Settings: RPMI 5 mM glucose + 10% dialyzed FBS; 48 h; 0.00234 µM
Could you give me the number in %? Just the number is fine.

Before answering, review these 6 worked examples.
Requested field: cell viability. Item: NNCCc1ccccc1 116

Also CC(C)c1noc(N2CCC(COc3ccc(-c4ccc([S+](C)(=O)[O-])cc4)nc3)CC2)n1 ? 122

Another compound: C[C@]12COC(=O)C[C@@H]1CC[C@@H]1[C@@H]2CC[C@@]2(C)[C@H]1CC[C@]2(C)O 101

Ok, now CN[C@@H]1[C@@H](O)[C@@H](O[C@@H]2[C@@H](O)[C@H](O[C@H]3O[C@H](CN)[C@@H](O)[C@H](O)[C@H]3O)[C@@H](N)C[C@H]2NC(=O)[C@@H](O)CN)OC[C@]1(C)O 115

Same lookup for O=C1c2ccccc2-[n+]2ccc3c([nH]c4ccccc43)c21 , please. 116

And what about the compound CC1(C)O[C@@H]2C[C@H]3[C@@H]4C[C@H](F)C5=CC(=O)C=C[C@]5(C)[C@@]4(F)[C@@H](O)C[C@]3(C)[C@]2(C(=O)CO)O1 ? 109

Further cases:
May I ask what cell viability has been recorded for COc1ccc([S+](=O)([O-])N(C(C)=O)c2ccccc2/C=C/c2cc[n+]([O-])cc2)cc1 ? 111

Next record, please: CC(C)(O)CC[C@@H](O)[C@](C)(O)[C@H]1CC[C@@]2(O)C/3=C/C(=O)[C@@H]4C[C@@H](O)[C@@H](O)C[C@]4(C)[C@H]3CC[C@]12C 110

Another compound to look at: OC[C@H]1O[C@H]([C@H](O)[C@@H]1O)N2\C=C/C(=O)NC2=O 85.1

// next record C[C@@H](Oc1cc(-c2cnn(C3CCNCC3)c2)cnc1N)c1c(Cl)ccc(F)c1Cl 116

* * *

Tested on: P12-Ichikawa
Test: cell viability relative to DMSO control; higher = less cytotoxic
Settings: RPMI 5 mM glucose + 10% dialyzed FBS; 48 h; 0.00702 µM
measure-name: cell viability (%)
Express the result in % but write the number alone.

Here is how some compounds turned out for cell viability.
Field request: cell viability | item: Cc1ccccc1C(=O)c1ccc(Nc2ccc(Br)cc2N)cc1Cl 127

Next compound: CC(C)C1NC(=O)C(NC(=O)C2=C3\N=C\4/C(=C(C)\C(=O)\C(=C4C(=O)NC5C(C)OC(=O)C(C(C)C)N(C)C(=O)CN(C)C(=O)C6CCCN6C(=O)C(NC5=O)C(C)C)N)OC3=C(C)C=C2)C(C)OC(=O)C(C(C)C)N(C)C(=O)CN(C)C(=O)C7CCCN7C1=O (stereo not given) 9.2

How about CC[C@H](NC1=C2N=C[NH]C2=NC=N1)C/3=N/C4=C(C(=CC=C4)F)C(=O)N3C5=CC=CC=C5 ? 125

Try this compound too: C[C@@]12C(=O)OC(=O)[C@@]1(C)C1CCC2O1 109

More entries:
Request the reported cell viability associated with Cn1cnc2c(F)c(Nc3ccc(Br)cc3F)c(C(=O)NOCCO)cc21 101

* * *

Tested on: NOMO1
Experiment: cell viability relative to DMSO control; higher = less cytotoxic
Conditions: RPMI 5 mM glucose + 10% FBS; 48 h; 0.000781 µM
Here, each record is paired with measured cell viability data.
Write the number in % without appending the unit.

// map CC(C)c1ccc2c(c1)c(SC(C)(C)C)c(CC(C)(C)C(=O)[O-])n2Cc1ccc(Cl)cc1 to recorded cell viability (system: NOMO1) 84.2

// switching to the query compound
Any idea what cell viability came out for C[C@@H]1COCCN1c1cc(C2([S@+](C)(=N)[O-])CC2)nc(-c2ccnc3[nH]ccc23)n1 on NOMO1? 102

* * *

Test system: SEM cells
Experiment: cell viability relative to DMSO control; higher = less cytotoxic
Settings: RPMI 5 mM glucose + 10% dialyzed FBS; 48 h; 0.19 µM
The entries below are paired with their reported cell viability.
Express the result in % but write the number alone.

Solved entries:
Requested field: cell viability. Item: O=C(O)Cn1nnc(-c2cc(N3CCC(Oc4cc(F)ccc4Br)CC3)no2)n1 102

Try the compound CCOC(=O)N1CCN(/[N+]([O-])=N/Oc2ccc([N+](=O)[O-])cc2C#N)CC1 117

Follow-up item: Cc1cnn(C)c1C(=O)Nc1cc(Nc2ccc3c(/C=C/c4ccccn4)n[nH]c3c2)ccc1F 89.1

// next record COC(=O)C[C@](O)(CCCC(C)(C)O)C(=O)O[C@@H]1C(OC)=CC23CCCN2CCc2cc4c(cc2[C@H]13)OCO4 (stereo partly drawn) 103

Another compound: CC(C)(O)CC[C@@H](O)[C@](C)(O)[C@H]1CC[C@@]2(O)C/3=C/C(=O)[C@@H]4C[C@@H](O)[C@@H](O)C[C@]4(C)[C@H]3CC[C@]12C 92.8

---
Query (compound): FC1=CC=C(C=C1)N2/C=C\C=C(C(=O)NC3=CC=C(OC4=C5C=C[NH]C5=NC=C4)C(=C3)F)/C2=O ; field requested: cell viability 111

Now this one: O=C1c2ccccc2-[n+]2ccc3c([nH]c4ccccc43)c21 84.9

Query COc1ccccc1OCC(O)COC(N)=O (stereo not drawn) next 121

Try this compound next: NC\1=N\C(=O)N(\C=C1)[C@@H]2O[C@H](CO)[C@@H](O)[C@@H]2O 7.91

Request: Cn1cnc2c(F)c(Nc3ccc(Br)cc3F)c(C(=O)NOCCO)cc21 91.5

How about CCOC(=O)c1ccc(OC(=O)CCCCCNC(=N)N)cc1 ? 117

Follow-up entry: CCOC(=O)[C@@H](N)Cc1ccc(-c2cc(O[C@H](c3ccc(Cl)cc3-n3ccc(C)n3)C(F)(F)F)nc(N)n2)cc1.O=C(O)CNC(=O)c1ccccc1 119

Another compound to check: ClC1=CC=C(C=C1)C(C#N)C2=C(Cl)C=C(C=C2Cl)N3\N=C/C(=O)NC3=O (stereo not drawn) 119

Then this compound: COCC1(CO)C(=O)C2CCN1CC2 (stereo not drawn) 116

What do we get for C[C@@]12C(=O)OC(=O)[C@@]1(C)C1CCC2O1 ? 113

Field entry: O=c1[nH]c(=O)n([C@H]2C[C@H](O)[C@@H](CO)O2)cc1/C=C/Br 112

And for C[N]1C=C(C=N1)C2=C3\C=N/NC(=O)C4=C3C(=CC(=C4)NC(=O)[C@H](N)C5CCCCC5)[NH]2 ? 90

Same read-out for C[S+](=O)([O-])Nc1ccc([N+](=O)[O-])cc1Oc1ccccc1 ? 102
